System: Plasmodium falciparum
Assay: Antimalarial activity against Plasmodium falciparum K1 infected in human type A+ erythrocytes incubated for 24 hrs followed by [G-3H]-hypoxanthine incorporation and measured after 18 hrs by liquid scintillation counting method
Assay type: functional, organism-based
measured_property: IC50

// known answers, use as guide
CC(=O)[C@H]1C[C@@H](O)[C@@]2(C)C3=C(C=C4C=CC(=O)OC(C)(C)[C@@H]4CC3)[C@@H](O)C[C@]12C | > 25 µM
CC(=O)O[C@]12CCC(=O)OC(C)(C)[C@@H]1CCC1=C2CC[C@]2(C)[C@@H]([C@H](C)[C@H]3OC(=O)C(C)=C[C@@H]3O)CC[C@@]12C | > 18 µM

Quick check: IC50 on Plasmodium falciparum, item CC1=CC[C@]2(OC1=O)O[C@H]1O[C@H]3C[C@@]14[C@H](CC[C@@]4(C)C1=C3C=C3C=CC(=O)OC(C)(C)[C@@H]3CC1)[C@@H]2C ?
> 20 µM
